- assayDetails: qHTS of pediatric cancer cell lines to identify multiple opportunities for drug repurposing: Primary screen for RD cells (AID 1347104); further: nearly all actives have a fitted effect of over 55% in size
- assayConditions: RD rhabdomyosarcoma viability, CellTiter-Glo luminescence, 48 h; series mostly up to 46 µM
Results filed as inconclusive are left out. Active and inactive are the calls of the source. The call rests on the fitted dose curve; in most records, active means well fitted cell-killing curve with a large enough effect; inconclusive means small, poorly fitted or top-dose-only effect; inactive means flat fitted curve, though single readings scatter. Where a SMILES comes first, the peptide text is derived from it. [ ]: non-standard residue; d: D form. pGlu = O=C1CC[C@@H](C(=O)O)N1
Possible outcomes: active, inactive

[
  {
    "molecule": "OC1(c2ccc(Cl)cc2)CCNCC1",
    "discreteLabel": "inactive"
  },
  {
    "molecule": "CCN(CC)C(=O)C1CN2CCc3cc(OC)c(OC)cc3C2CC1OC(C)=O (stereo unspecified)",
    "discreteLabel": "inactive"
  },
  {
    "molecule": "CC(NN)c1ccccc1 (stereo unspecified)",
    "discreteLabel": "inactive"
  },
  {
    "molecule": "CCC(=O)Oc1ccc2c(c1)CC[C@@H]1[C@@H]2CC[C@@]2(C)[C@H]1C[C@@H](OC(=O)CC)[C@@H]2OC(=O)CC",
    "discreteLabel": "inactive"
  },
  {
    "molecule": "C/C(=N/NC(=O)c1ccncc1)C(=O)O",
    "discreteLabel": "inactive"
  },
  {
    "molecule": "Cc1cccc(N(C)C(=S)Oc2ccc3c(c2)CCC3)c1",
    "discreteLabel": "inactive"
  },
  {
    "molecule": "CC(=O)N[C@@H](CO)C(=O)N[C@@H](CC(=O)O)C(=O)N[C@@H](CCCCN)C(=O)N1CCC[C@H]1C(=O)O (Ac-SDKP-OH)",
    "discreteLabel": "inactive"
  },
  {
    "molecule": "CCO[C@H](Cc1ccc(OCCc2ccc(OS(C)(=O)=O)cc2)cc1)C(=O)O",
    "discreteLabel": "inactive"
  },
  {
    "molecule": "CCC(=O)O[C@H]1[C@H](O[C@@H]2[C@@H](C)[C@H](O[C@H]3C[C@@](C)(OC)[C@@H](O)[C@H](C)O3)[C@@H](C)C(=O)O[C@H](CC)[C@@](C)(O)[C@H](O)[C@@H](C)C(=O)[C@H](C)C[C@@]2(C)O)O[C@H](C)C[C@@H]1N(C)C",
    "discreteLabel": "inactive"
  },
  {
    "molecule": "OCc1cccnc1",
    "discreteLabel": "inactive"
  },
  {
    "molecule": "Cc1c(F)cc2c(=O)c(C(=O)O)cn3c2c1CCC3C (stereo unspecified)",
    "discreteLabel": "inactive"
  },
  {
    "molecule": "CC(=O)c1cc2ccccc2s1",
    "discreteLabel": "inactive"
  },
  {
    "molecule": "CC(C)NC(=O)c1ccc(C=O)cc1",
    "discreteLabel": "inactive"
  },
  {
    "molecule": "CCOc1ccccc1OCC1CNCCO1 (stereo unspecified)",
    "discreteLabel": "inactive"
  },
  {
    "molecule": "Nc1c2ccccc2nc2ccccc12",
    "discreteLabel": "active"
  },
  {
    "molecule": "CC(C)(C)c1cc(C=O)cc(C(C)(C)C)c1O",
    "discreteLabel": "inactive"
  },
  {
    "molecule": "CCNC(=O)[C@@H]1CCCN1C(=O)[C@H](CCCN=C(N)N)NC(=O)[C@H](CC(C)C)NC(=O)CNC(=O)[C@H](Cc1ccc(O)cc1)NC(=O)[C@H](CO)NC(=O)[C@H](Cc1c[nH]c2ccccc12)NC(=O)[C@H](Cc1cnc[nH]1)NC(=O)[C@@H]1CCC(=O)N1 ([pGlu]HWSYGLRP-NHEt)",
    "discreteLabel": "inactive"
  },
  {
    "molecule": "CCOc1ccc(NS(=O)(=O)c2ccc(N)cc2)nn1",
    "discreteLabel": "inactive"
  },
  {
    "molecule": "O=C(O)c1ccccc1S",
    "discreteLabel": "inactive"
  },
  {
    "molecule": "NCC(=O)O",
    "discreteLabel": "inactive"
  },
  {
    "molecule": "CNC[C@H](O)[C@@H](O)[C@H](O)[C@H](O)CO",
    "discreteLabel": "inactive"
  }
]
